Target: POLRMT (Homo sapiens (Human), UniProt O00411)
Sequence (O00411 42-1230): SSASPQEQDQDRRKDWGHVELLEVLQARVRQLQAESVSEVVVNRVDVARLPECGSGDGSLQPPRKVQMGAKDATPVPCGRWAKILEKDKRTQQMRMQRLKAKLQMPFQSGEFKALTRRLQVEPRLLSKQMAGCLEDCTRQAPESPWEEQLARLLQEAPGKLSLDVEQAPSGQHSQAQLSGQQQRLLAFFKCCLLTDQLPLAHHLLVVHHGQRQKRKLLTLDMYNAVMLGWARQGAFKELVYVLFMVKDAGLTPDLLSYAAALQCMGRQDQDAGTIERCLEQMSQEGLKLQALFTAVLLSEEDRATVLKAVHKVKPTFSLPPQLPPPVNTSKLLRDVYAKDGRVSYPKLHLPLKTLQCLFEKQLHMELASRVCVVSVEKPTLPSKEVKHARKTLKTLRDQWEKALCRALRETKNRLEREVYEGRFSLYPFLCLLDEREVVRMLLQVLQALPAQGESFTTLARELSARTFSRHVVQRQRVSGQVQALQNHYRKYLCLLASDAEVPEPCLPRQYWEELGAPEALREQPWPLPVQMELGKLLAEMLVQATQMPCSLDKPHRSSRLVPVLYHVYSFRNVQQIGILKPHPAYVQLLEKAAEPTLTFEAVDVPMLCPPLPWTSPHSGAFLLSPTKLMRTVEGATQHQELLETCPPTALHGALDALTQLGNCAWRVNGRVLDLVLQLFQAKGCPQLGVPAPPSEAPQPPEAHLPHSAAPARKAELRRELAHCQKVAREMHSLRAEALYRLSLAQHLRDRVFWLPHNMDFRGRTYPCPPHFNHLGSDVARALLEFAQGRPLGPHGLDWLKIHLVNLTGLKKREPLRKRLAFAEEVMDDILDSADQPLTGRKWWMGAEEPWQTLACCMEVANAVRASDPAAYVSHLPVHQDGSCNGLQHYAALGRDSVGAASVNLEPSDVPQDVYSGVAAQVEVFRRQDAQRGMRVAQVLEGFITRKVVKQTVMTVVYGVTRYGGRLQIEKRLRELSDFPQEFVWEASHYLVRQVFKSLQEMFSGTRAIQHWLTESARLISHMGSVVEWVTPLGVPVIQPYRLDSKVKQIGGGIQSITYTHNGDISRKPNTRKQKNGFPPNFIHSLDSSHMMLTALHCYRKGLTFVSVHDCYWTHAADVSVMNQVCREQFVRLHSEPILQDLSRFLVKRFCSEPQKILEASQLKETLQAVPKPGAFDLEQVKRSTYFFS
pIC50: −log10 of the molar value.
MEASURED_QUANTITY: pIC50

>>> df
                                   compound                               test_system  measured_quantity  value_measured
0  COC(=O)c1ccc2c(-c3ccccc3C)ccnc2c1 [Example 1]  POLRMT (Homo sapiens (Human), UniProt O00411)              pIC50            5.52
1  Cc1ccccc1-c1ccnc2cc(NC(C)C(=O)N(C)C)ccc12 (single isomer, unassigned) [Example 49]  POLRMT (Homo sapiens (Human), UniProt O00411)              pIC50            5.00

1 = CC(=O)Nc1ccc2c(-c3ccccc3C)ccnc2c1 [Example 11, N-(4-(o-tolyl)quinolin-7-yl)acetamide]
2 = Cc1ccccc1-c1ccnc2cc(CC(C)C(=O)N3CCCCC3)ccc12 (single isomer, unassigned) [Example 34]
3 = Cc1ccccc1-c1ccnc2cc(CN(C)S(C)(=O)=O)ccc12 [Example 32]
4 = Cc1ccccc1-c1ccnc2cc(CC(=O)O)ccc12 [Example 29, 2-(4-(o-tolyl)quinolin-7-yl)acetic acid]
[in] Hey, quick one: sort these by pIC50, largest value first please. Rank the items, then write their labels in that order.
[out] 2, 1, 3, 4

Numbers sourced from patent US20250353816A1.
